# key: entry, value: T/C
system: L1210 leukemia ip in BDF1 mice, survival T/C; experiment: NCI In Vivo Anticancer Drug Screen. Data for tumor model L1210 Leukemia (intraperitoneal) in B6D2F1 (BDF1) mice; details: endpoint: mean survival time; dose: 150.0 mg/kg/injection; schedule: Q04DX003 (ip); vehicle: saline; higher = longer survival
Inconclusive results and toxic doses are left out.

INSERT INTO results (molecule, target_desc, result) VALUES
  ('CCOC(=O)NC(=S)[S][Sb]([S]C(=S)NC(=O)OCC)[S]c1nc2ccc(N=Nc3ccc(NS(=O)(=O)c4ccc(NC(=O)C(Sc5ncnc6nc[nH]c56)SC5N=C=Nc6nc[nH]c65)cc4)cc3)cc2s1 (centres undefined)', 'L1210 leukemia ip in BDF1 mice, survival T/C', '91 % of control'),
  ('O=C(O)CP(=O)(O)O', 'L1210 leukemia ip in BDF1 mice, survival T/C', '102 % of control'),
  ('COc1ccc(C(=O)C(Br)C(Br)C(=O)O)cc1 (centres undefined)', 'L1210 leukemia ip in BDF1 mice, survival T/C', '111 % of control');

Specify measured T/C for Cc1cc2c(cc1C)N(C(=O)CN1CCSCC1)CC(=O)N2 .
94 % of control

---

# key: entry, value: T/C
tested on: L1210 leukemia ip in BDF1 mice, survival T/C; test: NCI In Vivo Anticancer Drug Screen. Data for tumor model L1210 Leukemia (intraperitoneal) in B6D2F1 (BDF1) mice; conditions: endpoint: mean survival time; dose: 200.0 mg/kg/injection; schedule: Q04DX003 (ip); vehicle: Klucel (hydroxypropylcellulose) (HPC); higher = longer survival
Toxic doses and inconclusive results are not listed.

INSERT INTO measurements (molecule, result) VALUES
  ('CC(Oc1cc(Cl)ccc1Cl)C(=O)O (stereo unspecified)', '104 % of control'),
  ('CCCCCCCCCCC[CH2][Hg][CH2]CCCCCCCCCCC', '89 % of control'),
  ('Cc1cc(C)n(/N=C/c2c[nH]c3ccccc23)c(=O)c1C#N', '94 % of control');

Specify measured T/C for CCCCCCCCCCCCCCCCCCCC/C=C/C1CC(=O)OC1=O (stereo unspecified) .
98 % of control

Specify measured T/C for c1ccc(-c2ccc([Si](c3ccccc3)(c3ccc(-c4ccccc4)cc3)c3ccc(-c4ccccc4)cc3)cc2)cc1 .
88 % of control

Specify measured T/C for O=C(NCCCN1CC1)C(=O)NNc1ccccc1 .
93 % of control

---

# key: entry, value: T/C
tested on: L1210 leukemia ip in BDF1 mice, survival T/C; assay: NCI In Vivo Anticancer Drug Screen. Data for tumor model L1210 Leukemia (intraperitoneal) in B6D2F1 (BDF1) mice; conditions: endpoint: mean survival time; dose: 25.0 mg/kg/injection; schedule: Q04DX003 (ip); vehicle: saline with Tween-80; higher = longer survival
Inconclusive results and toxic doses are left out.

Worked cases, T/C given:
INSERT INTO results (molecule, result) VALUES
  ('BrCC1CCCCO1 (stereo not drawn)', '108 % of control'),
  ('O=C(N/N=C\c1cccc([N+](=O)[O-])c1)N/N=C/c1cccc([N+](=O)[O-])c1', '87 % of control'),
  ('CN1CCc2cc3c(cc2C(=O)Cc2ccc4c(c2C1)OCO4)OCO3', '103 % of control');

--- query ---
Specify measured T/C for NC(CSS(=O)(=O)O)=NCCCCCN=C(N)CSS(=O)(=O)O .
102 % of control

---

system: L1210 leukemia ip in BDF1 mice, survival T/C; experiment: NCI In Vivo Anticancer Drug Screen. Data for tumor model L1210 Leukemia (intraperitoneal) in B6D2F1 (BDF1) mice; details: endpoint: mean survival time; dose: 200.0 mg/kg/injection; schedule: Q01DX001 (ip); vehicle: saline; higher = longer survival
Inconclusive results and toxic doses are left out.
# key: entry, value: T/C

Worked cases, T/C given:
INSERT INTO assay_data (molecule, result) VALUES
  ('Cn1nnnc1CCN(N)CCN(N)CCc1nnnn1C', '92 % of control'),
  ('CC(=O)c1ccc2cc(O)ccc2c1', '101 % of control'),
  ('C=C(Cl)CSc1ccccc1', '103 % of control'),
  ('CN(C)CCCN1CCC2(CCC(CO)CC2)CC1', '94 % of control'),
  ('c1cc2nnc3cccc4nnc(c1)c2c34', '107 % of control');

Specify measured T/C for N#CC1C(=O)NC(c2ccccc2)=CC1c1ccccc1 (configuration not stated) .
94 % of control

Specify measured T/C for COc1ccc2c3c1OC1C=CC(O)C4C(C2)N(C)CCC314 (configuration not stated) .
89 % of control

---

tested on: L1210 leukemia ip in BDF1 mice, survival T/C; experiment: NCI In Vivo Anticancer Drug Screen. Data for tumor model L1210 Leukemia (intraperitoneal) in B6D2F1 (BDF1) mice; settings: endpoint: mean survival time; dose: 100.0 mg/kg/injection; schedule: Q04DX002 (ip); vehicle: Klucel (hydroxypropylcellulose) (HPC); higher = longer survival
Toxic doses and inconclusive results are not listed.
measurement type: T/C

Worked cases, T/C given:
INSERT INTO results (compound, result) VALUES
  ('Cc1cccc(NC(=O)C2CCCCC2C(=O)O)c1C (stereo unspecified)', '100 % of control'),
  ('CN(C)C(=S)S/C=C\C(=O)O', '94 % of control'),
  ('O=C1CN(/N=C/c2ccc(-c3ccc(Cl)c(Cl)c3)o2)C(=O)N1', '110 % of control');

Specify measured T/C for Cc1ccc(NC(=O)COc2ccc(Cl)cc2Cl)cc1NC(=O)COc1ccc(Cl)cc1Cl .
89 % of control

Specify measured T/C for CNC(=O)CCCOC(=O)c1ccc([N+](=O)[O-])cc1 .
104 % of control

Specify measured T/C for O=C1c2ccccc2C2(Br)C(=O)c3ccccc3C12Br (stereo unspecified) .
104 % of control

Specify measured T/C for CC(=O)OC1CCC2(C)C(=CC=C3C2CCC2(C)C(C(C)=O)CCC32)C1 (stereo unspecified) .
86 % of control

Specify measured T/C for CN(C)CCOC(=O)c1ccccc1C=O .
105 % of control

Specify measured T/C for O=C(Nc1ccc(Br)cc1)Oc1ccccc1C(=O)OCc1ccccc1 .
97 % of control

Specify measured T/C for Cc1ccc(Cl)cc1NC(=O)c1ccccc1F .
93 % of control

Specify measured T/C for CCCCCCCCCCCCSC(=O)Nc1ccc(C(=O)OCC)cc1 .
95 % of control

Specify measured T/C for O=C(c1ccccc1)c1ccc(O)c([N+](=O)[O-])c1 .
90 % of control

---

tested on: L1210 leukemia ip in BDF1 mice, survival T/C; experiment: NCI In Vivo Anticancer Drug Screen. Data for tumor model L1210 Leukemia (intraperitoneal) in B6D2F1 (BDF1) mice; settings: endpoint: mean survival time; dose: 100.0 mg/kg/injection; schedule: Q04DX003 (ip); vehicle: saline
Toxic doses and inconclusive results are not listed. Cut-off read from the data, not from the text of the source: active = T/C of 150% or more; inactive = T/C below 125%.
Pick one and only one: t for active, f for inactive

INSERT INTO measurements (compound, target_desc, label) VALUES
  ('CC1=C/C(=N\N2CCOCC2)C(C(O)(C(F)(F)F)C(F)(F)F)C(C)(C)C1 (centres undefined)', 'L1210 leukemia ip in BDF1 mice, survival T/C', 'f'),
  ('O=C1OC(=O)C2C1C1(Cl)C(Cl)=C(Cl)C2(Cl)C2C(=O)OC(=O)C21 (centres undefined)', 'L1210 leukemia ip in BDF1 mice, survival T/C', 'f'),
  ('O=C1C=CC(=C(Br)Br)O1', 'L1210 leukemia ip in BDF1 mice, survival T/C', 'f'),
  ('O=C(O)CNC(=O)c1ccc(C(=O)NCC(=O)O)cc1', 'L1210 leukemia ip in BDF1 mice, survival T/C', 'f'),
  ('CC(C)C1(C(=O)O)SCCCS1', 'L1210 leukemia ip in BDF1 mice, survival T/C', 'f');

So what was the verdict on Cc1ccc(S(=O)(=O)Nc2ccccc2-c2nc3c(Cl)ccc(Cl)c3c(=O)o2)cc1 in this test?
f

So what was the verdict on Nc1nc(N)c2nc(CN3CCCc4cc(C(=O)NC(CCC(=O)O)C(=O)O)ccc43)cnc2n1 (centres undefined) in this test?
t

So what was the verdict on CC(=O)Nc1ccc(N)c(NC(C)=O)n1 in this test?
f

So what was the verdict on O=C1CCc2cc3c(cc21)OCO3 in this test?
f

So what was the verdict on CCCCN(C)N=Nc1ccc(CCCC(=O)OCC)cc1 in this test?
f

---

system: L1210 leukemia ip in BDF1 mice, survival T/C; test: NCI In Vivo Anticancer Drug Screen. Data for tumor model L1210 Leukemia (intraperitoneal) in B6D2F1 (BDF1) mice; details: endpoint: mean survival time; dose: 100.0 mg/kg/injection; schedule: Q01DX001 (ip); vehicle: carboxymethylcellulose (CMC)
Toxic doses and inconclusive results are not listed. No stated cut-off is given here; in the data, active means T/C of 150% or more; inactive means T/C below 125%.
Pick one and only one: label 1 = active, label 0 = inactive

INSERT INTO measurements (molecule, label) VALUES
  ('Cc1cccc(C2=CCCCC2)c1', 'label 0');

So what was the verdict on O=C(O)c1ccncc1C(=O)O in this test?
label 0

So what was the verdict on CC(CO)(CO)NC(=O)c1ccc([N+](=O)[O-])cc1 in this test?
label 0

All figures here come from PubChem BioAssay AID248.
